Hey, just so you know, these numbers are from patent US20250171534A1.

Recorded EC50 by entry
# study target: T1, human LILRB1 expressed on cells (human, UniProt Q8NHL6 24-650)
# T1 construct: In 293T cells it was expressed from pCMV3-LILRB1-GFP; also called CHO-LILRB1; Jurkat-LILRB1
# T1 sequence (Q8NHL6 other isoform, or with tags, fused parts or gaps limits assumed): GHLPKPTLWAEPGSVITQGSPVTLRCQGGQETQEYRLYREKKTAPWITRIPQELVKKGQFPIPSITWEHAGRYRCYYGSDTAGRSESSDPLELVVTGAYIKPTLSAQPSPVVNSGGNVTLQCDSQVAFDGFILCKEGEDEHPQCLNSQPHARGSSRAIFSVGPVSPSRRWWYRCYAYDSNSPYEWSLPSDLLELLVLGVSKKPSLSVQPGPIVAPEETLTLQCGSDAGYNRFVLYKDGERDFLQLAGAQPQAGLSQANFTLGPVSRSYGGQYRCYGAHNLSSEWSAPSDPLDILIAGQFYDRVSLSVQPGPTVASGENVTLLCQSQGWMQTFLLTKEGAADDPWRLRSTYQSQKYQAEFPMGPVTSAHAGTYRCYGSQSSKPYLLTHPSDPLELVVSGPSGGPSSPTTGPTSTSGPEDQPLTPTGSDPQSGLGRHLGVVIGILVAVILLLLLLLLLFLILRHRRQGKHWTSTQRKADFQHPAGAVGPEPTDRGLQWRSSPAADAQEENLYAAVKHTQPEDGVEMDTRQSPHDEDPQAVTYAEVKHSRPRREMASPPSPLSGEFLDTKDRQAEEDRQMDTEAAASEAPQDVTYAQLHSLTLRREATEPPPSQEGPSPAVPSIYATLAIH
# assay method text: flow cytometry, CHO-LILRB1 cells

binder: #8 (antibody, human IgG1, V domains shown, also called D2M002-008) VH: EVQLQQPGAELMKPGASVKISCKATGYTFSSSWTEWVKQRPGHGLEWIGEILPGSGSTNYNEKFKGKATFTADTSSNTAYMQLSSLTSEDSAVYYCARSGAGGYDSGAFAYWGQGTLVTVSA VL: DIVLTQSPASLAVSLGQRATISCRASESIDTYGNSFMHWYQQKPGQPPKLLIYRTSNLESGIPARFSGSGSRTDFTLTINPVEADDVATYYCQQSNEDPWTFGGGTKLEIK
EC50, µg/mL: 1.08

binder: Anti-LILRB1 antibody 3C1 (antibody, human IgG4 S228P, lambda, V domains shown) VH: EVQLVESGGGLVQPGGSLRLSCAASGFTFSDYDMHWVRQATGKGLEWVATIDTAGDTYYPDSVRGRFTISRENAKNSLSLQMNSLRAGDTAVYFCARDVPGTGFDHWGQGTLVTVSS VL: SSELTQDPAVSVALGQTVRITCQGDSLRSYYESWYQQKPGQAPVLVIYGKNNRPSGIPDRFSGSISGNTASLTITGTQAEDEADYYCNSRDNSGDHWVFGGGTRLTVLG
EC50, µg/mL: 0.016

binder: #1 (antibody, human IgG1, V domains shown, also called D2M002-001) VH: EVQLQQSGPELVKPGASVKMSCKASGYTFTRYVMHWVKQKPGQGLEWIGYINPNNDGTKYNEKFKGKVTLTSDKSSSTAYMELSSLTSEDSAVYYCARGDLEILPYYDHARNAMDYWGQGTSVTVSS VL: DIVMTQSPASQSASLGESVIITCRASGNIHNYLAWYQQKQGKSPQLLVYNAKTLADGVPSRFSGSGSGTQYSLKINSLQPEDFGTYYCQHFWSSPPTFGGGTKLELK
EC50, µg/mL: 0.093
